Source listed as PubChem BioAssay (NCI).

tested on: UACC-257 melanoma; assay: NCI tumour cell line growth inhibition, 48 h
quantity kind: TGI (µM)
One number for each entry, in µM.

Query block: So what's the measured TGI for this one? Cn1c(=O)[nH]c2nncnc2c1=O
Result block: 302

Give TGI for all compounds that follow.
1. O=C(Cc1ccc(/C=C/C(=O)c2ncc[nH]2)cc1)Nc1ccc(F)cc1
2. COc1cc(NS(C)(=O)=O)ccc1Nc1cc[nH]c2ccc3nccc3c12

Result block:
30.6
33.2

====

system: RPMI-8226 leukemia; assay: NCI tumour cell line growth inhibition, 48 h; in the data active = GI50 below about 0.43 µM; inactive = the rest
Select the correct class. Options are active, inactive and nothing else.

These recorded examples may help you get a feel for the data.
Query block: Which outcome did this test record for the compound C=C1CC[C@@H]2[C@](C)(COC(C)=O)[C@H](OC(C)=O)CC[C@@]2(C)[C@@H]1CC(Nc1ccc(S(=O)(=O)NC(C)=O)cc1)C1=CCOC1=O (stereo not given in full) ?
Result block: inactive

Query block: Again, but for COC[C@@H](N=C1NC(=O)/C(=C/c2ccc3ncccc3c2)S1)c1ccccc1
Result block: inactive

Query block: Follow-up entry: N.N.N.N.N.[Co+3].[I-].[N-]=[N+]=[N-]
Result block: inactive

Query block: Param item: Cc1cc(S(=O)(=O)Nc2nc3ccccc3o2)c(SCc2ccccc2)cc1Cl
Result block: inactive

Query block: Also COc1ccc(/C=C/C(=O)c2cc(OC)c(OC)c(OC)c2)cc1OCC(=O)Nc1nc2ccc(OC(F)(F)F)cc2s1 , if possible.
Result block: inactive

Query block: Query COc1cc(/C=C\c2cc(OC)c(OC)c(OC)c2)cc(N/C=C\C(=O)c2ccc(OC(F)(F)F)cc2)c1OC next
Result block: inactive

Query block: Entry Cc1cc(O)c(=O)cc2c1C[C@H]1CC(C)(C)/C=C/C[C@]3(C)Oc4cc(=O)c(O)cc(C)c4C[C@H]3C[C@H](O)[C@@]1(C)O2 please
Result block: active

Query block: Try this compound next: O=C(CC(Cl)=C(Cl)Cl)Nc1ccccc1
Result block: inactive

Query block: Another compound to check: C/C(=N\NC(=S)N1CCCCC1)c1ccccn1
Result block: active

We now examine a further compound.
Query block: In this assay, the call recorded for CC(=O)c1ccc2c(c1)c1cc(C(C)=O)ccc1n2CCNC(C)C was what?
Result block: active
